- target system: Aβ42 oligomers (Homo sapiens, UniProt P05067)
- Sequence (P05067 672-713 limits assumed): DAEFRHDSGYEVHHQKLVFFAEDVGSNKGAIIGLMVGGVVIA
- assay procedure: ELISA binding of histidine-tagged ZR derivatives to Aβ42 oligomers
Where no end group is shown, it is not given here.
Would you mind telling me the reported OD450 of binding to Aβ42 oligomers of each entry?
Numbers only.

{"columns": ["substance", "OD450 of binding to Aβ42 oligomers"],
 "data": [
  ["SFFNNKA [sequence 13]", 0.14],
  ["SFFNAKR [sequence 11]", 0.18],
  ["SFANNKR [sequence 9]", 0.15],
  ["SFFNNAR [sequence 12]", 0.14]
]}

Okay, now this substance:
Qu. Return reported OD450 of binding to Aβ42 oligomers; argument: AFFNNKR [sequence 7]
Ans. 0.22
